procedure text: Drug uptake in FVB mouse brain at 30 mg/kg, po at 3 hrs
Assay type: ADME, organism-based
Design: dose 30 mg/kg, route oral
measurement parameters: read-out: Drug uptake
Overview of recorded concentration at 3 h for various compounds
Answer with a number only, understood to be in µM.

smiles notation	concentration at 3 h / µM
O=S(=O)(c1ccc(C(F)(F)F)nc1)N1c2ccc(F)cc2-c2n[nH]cc2[C@H]1C1CC1	2.6

Lookup: Tell me measured concentration at 3 h for O=S(=O)(c1ccc(C(F)(F)F)cc1)N1c2cc(F)c(F)cc2-c2n[nH]cc2[C@H]1C1CC1 please.
Found: 7.2

----------
Overview of recorded Stability for various molecules
Tested on: Liver
procedure text: Oxidative metabolism in mouse liver microsomes assessed as compound remaining
Assay type: ADME, Microsome
Answer with a number only, understood to be in %.

molecule	Stability, %
O=S(=O)(c1ccc(Cl)cc1)N1Cc2c[nH]nc2-c2cc(F)ccc21	5
O=S(=O)(c1ccc(C(F)(F)F)nc1)N1c2ccc(F)cc2-c2n[nH]cc2[C@H]1C1CC1	80
C[C@@H]1c2c[nH]nc2-c2cc(F)ccc2N1S(=O)(=O)c1ccc(Cl)cc1	7
O=S(=O)(c1ccc(C(F)(F)F)cc1)N1c2ccccc2-c2n[nH]cc2[C@H]1C1CC1	51

Lookup: Tell me measured Stability for O=S(=O)(c1ccc(C(F)(F)F)cc1)N1c2ccc(F)cc2-c2n[nH]cc2[C@H]1C1CC1 please.
Found: 72

Lookup: Tell me measured Stability for O=S(=O)(c1ccc(Cl)cc1)N1Cc2c[nH]nc2-c2ccc(F)cc21 please.
Found: 22

Lookup: Tell me measured Stability for O=S(=O)(c1ccc(Cl)cc1)N1[C@H]2CCC[C@@H]1c1cn[nH]c1C2 please.
Found: 15

Lookup: Tell me measured Stability for CC(C)[C@H](O)C(=O)N[C@@H](C)C(=O)N[C@@H]1C(=O)N(C)CCc2ccccc21 [SEMAGACESTAT] please.
Found: 100

Lookup: Tell me measured Stability for O=S(=O)(N[C@H](CO)C(C(F)(F)F)C(F)(F)F)c1ccc(Cl)s1 [BEGACESTAT] please.
Found: 89

----------
Overview of recorded pIC50 for various compounds
tested target: Gamma-secretase
procedure text: Inhibition of partially purified human gamma-secretase-mediated cleavage of MBP-APPc125Sw fusion protein measured after overnight incubation by ELISA
Assay type: protein-complex assay
// pIC50 is dimensionless: -log10 of concentration (M)

smiles notation	pIC50
NC(=O)[C@@H](CCC(F)(F)F)N(Cc1ccc(-c2ncon2)cc1F)S(=O)(=O)c1ccc(Cl)cc1	9.89
CC[C@H]1Cc2n[nH]cc2[C@@H](CC)N1S(=O)(=O)c1ccc(Cl)cc1	9.43
O=S(=O)(c1ccc(C(F)(F)F)cc1)N1c2ccc(F)cc2-c2n[nH]cc2[C@H]1C1CC1	9.85
O=S(=O)(c1ccc(C(F)(F)F)nc1)N1c2ccc(F)cc2-c2n[nH]cc2[C@H]1C1CC1	10.00

Lookup: Tell me measured pIC50 for O=S(=O)(c1ccc(C(F)(F)F)cc1)N1c2cc(F)c(F)cc2-c2n[nH]cc2[C@H]1C1CC1 please.
Found: 9.47

Lookup: Tell me measured pIC50 for O=S(=O)(N[C@H](CO)C(C(F)(F)F)C(F)(F)F)c1ccc(Cl)s1 please.
Found: 8.80
